Experiment: Metabolic stability in cryopreserved human hepatocytes
Format: in vitro ADME
Settings: human, hepatocytes, t1/2 (min)
reported endpoint: half-life at 1 µM

Task: Entry Cc1sc2c(c1C)C(c1ccc(Cl)cc1)=N[C@@H](CC(=O)O)c1nnc(C)n1-2 [Compound 43, (+)-JQ1, reference compound] needs its half-life at 1 µM filled in; supply it.
Result: > 4 h

====

Test: Metabolic stability in cryopreserved human hepatocytes
Format: in vitro ADME
Conditions: human, cryopreserved human hepatocytes (pooled, suspension), Table S1; PROTACs, cryopreserved human hepatocytes; read-out: t1/2
reported endpoint: half-life at 1 µM

Worked examples, 2 compounds total:
>>> experimental_value("O=C(COc1c(-c2csc(N3CCOCC3)n2)ccc(F)c1F)NCCCCCCCCNc1cccc2c1C(=O)N(C1CCC(=O)NC1=O)C2=O (centres unmarked) [Compound 30]")
"47.6 min"
>>> experimental_value("O=C(COc1c(-c2csc(N3CCOCC3)n2)ccc(F)c1F)NCCCCCCNc1cccc2c1C(=O)N(C1CCC(=O)NC1=O)C2=O (centres unmarked) [Compound 29]")
"53.5 min"

Task: Entry Cc1ncsc1-c1ccc([C@H](C)NC(=O)[C@@H]2C[C@@H](O)CN2C(=O)[C@@H](NC(=O)COCCCNC(=O)c2ccc3c(c2)nc(Nc2cccc(Cl)c2)c2ccncc23)C(C)(C)C)cc1 [Compound 19] needs its half-life at 1 µM filled in; supply it.
Result: 159 min

Task: Entry Cc1ncsc1-c1ccc([C@H](C)NC(=O)[C@@H]2C[C@@H](O)CN2C(=O)[C@@H](NC(=O)CCN2CCN(C(=O)C[C@@H]3N=C(c4ccc(Cl)cc4)c4c(sc(C)c4C)-n4c(C)nnc43)CC2)C(C)(C)C)cc1 [Compound 11] needs its half-life at 1 µM filled in; supply it.
Result: > 240 min

Task: Entry Cc1ncsc1-c1ccc([C@H](C)NC(=O)[C@@H]2C[C@@H](O)CN2C(=O)[C@@H](NC(=O)CCCCNC(=O)c2ccc3c(c2)nc(Nc2cccc(Cl)c2)c2ccncc23)C(C)(C)C)cc1 [Compound 17] needs its half-life at 1 µM filled in; supply it.
Result: 204 min

====

Test: Metabolic stability in cryopreserved human hepatocytes
Format: in vitro ADME
Conditions: human, cryopreserved human hepatocytes (pooled, suspension), supplement CSV; human hepatocytes; read-out: HLH t1/2
reported endpoint: half-life at 1 µM (h)
Give a bare numeral; the unit h is implied.

>>> experimental_value("Cc1ncsc1-c1ccc([C@H](CC(=O)NCCCCCCNC(=O)COc2c(-c3csc(N4CCOCC4)n3)ccc(F)c2F)NC(=O)[C@@H]2C[C@@H](O)CN2C(=O)[C@@H](NC(=O)C2(F)CC2)C(C)(C)C)cc1")
1.11
>>> experimental_value("Cc1ncsc1-c1ccc(CNC(=O)[C@@H]2C[C@@H](O)CN2C(=O)[C@@H](NC(=O)COCCOCCOCCNC(=O)C[C@@H]2N=C(c3ccc(Cl)cc3)c3c(sc(C)c3C)-n3c(C)nnc32)C(C)(C)C)cc1 [Compound 7, MZ1, reference compound]")
3.5
>>> experimental_value("Cc1ncsc1-c1ccc([C@H](C)NC(=O)[C@@H]2C[C@@H](O)CN2C(=O)[C@@H](NC(=O)CCCCCCCCCCC(=O)N2CCN(C(=O)c3cc(Cc4n[nH]c(=O)c5ccccc45)ccc3F)CC2)C(C)(C)C)cc1")
1.58

Task: Entry `Cc1ncsc1-c1ccc([C@H](C)NC(=O)[C@@H]2C[C@@H](O)CN2C(=O)[C@@H](NC(=O)CCCCCCNC(=O)c2ccc3c(c2)nc(Nc2cccc(Cl)c2)c2ccncc23)C(C)(C)C)cc1` needs its half-life at 1 µM filled in; supply it.
Result: 3.48

Value source: paper PMC8015227
